biological target: Calmodulin-1 (Homo sapiens) (UniProt P0DP23); assay: calcium-bound CALM1 binders on microarrays, profiling panel, artefact control for SMM control-protein annotation, biochemical, small-molecule microarray, Cy5-labelled CALM1, plus calcium (AID 1112); settings: Cy5-CALM1 binding fluorescence, higher = more signal;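 also: score merges spot fluorescence with signal to noise from triplicate slides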
Assign yes whenever composite z-score does not fall below 0.3; assign no whenever it does.

Example entries and their recorded answers appear below.
Is composite z-score at least 0.3? Consider CCOC(=O)C[C@H]1[C@H](OC(=O)c2ccc(C(=O)c3ccccc3)cc2)[C@@H](NC(=O)Cc2ccc(OC)cc2)c2cc(OCCCO)ccc2N1C(=O)c1ccccc1 yes

Quick one: COc1ccc(CCNC(=O)[C@@]2(Sc3ccc(C)cc3)CC(=O)N(C3Cc4ccccc4C3)[C@@H]2c2ccc(CO)cc2)cc1 yes

Quick one: O=C1NC(=O)C2C1C=CC(C(O)c1ccco1)N2Nc1ccccn1 (stereo not given) no

Quick one: C[C@]1(C(=O)NC2CC2)c2ccccc2C(=O)N(Cc2ccccc2)[C@H]1c1ccc(CO)cc1 no

More entries:
Is composite z-score at least 0.3? Consider C=CCC(OC(C)=O)[C@@H]1[C@@H](N(Cc2ccc(-c3ccccc3)cc2)C(=O)Cc2ccc(F)cc2)c2cc(OCCCO)ccc2N1C(=O)Cc1ccc(OC)cc1 (stereo not given in full) no

Quick one: COc1ccc(NC(=O)O[C@H]2[C@H](OC(=O)Nc3ccccc3)[C@@H](OC(=O)Nc3ccccc3)[C@@H](OC)O[C@@H]2CO)cc1 no

Quick one: CCOC(=O)C[C@H]1[C@H](OC(=O)c2cc3ccccc3oc2=O)[C@@H](NC(=O)c2ccc(-c3ccccc3)cc2)c2cc(OCCCO)ccc2N1C(=O)c1ccccc1 no

Quick one: O=c1n(-c2ccccc2)c(=O)n2n1CC(COc1ccccc1)=C([C@H](O)CCc1ccccc1)[C@@H]2CO no

Quick one: C=CCOC(=O)[C@H]1[C@@H]2C(=O)O[C@@H](c3ccccc3)[C@@H](c3ccccc3)N2[C@@H](c2ccc(OCCOC(=O)[C@H]3C[C@H]4C(=O)N[C@@H](CCCCNC(C)=O)C(=O)N4[C@H]3c3ccc(O)cc3)cc2)[C@]12C(=O)Nc1ccccc12 yes

Quick one: CC1CC/C=C\[C@H]2OC34C=CCN(c5ccc(Cl)cc5)C(=O)[C@H]3N(CCCCCO)C(=O)[C@]4(C)C2C(=O)O1 (stereo not given in full) yes
